# tested on: human GLP-1 receptor (human, UniProt P43220 24-463)
# method: cell-based or functional assay
Where no end group is shown, it is not given here. [ ]: non-standard residue; d: D form. Bip(2'-Et-4'-OMe) = CCc1cc(OC)ccc1-c1ccc(C[C@H](N)C(=O)O)cc1; αMePhe(2,6-F2) = C[C@](N)(Cc1c(F)cccc1F)C(=O)O; αMePhe(2-F) = C[C@](N)(Cc1ccccc1F)C(=O)O; αMeBip(OMe) = alpha-methylated Bip(OMe); hhPhe = N[C@@H](CCCc1ccccc1)C(=O)O; αMeP = C[C@@]1(C(=O)O)CCCN1; αMeAPPA = not defined here; αMeS = C[C@](N)(CO)C(=O)O
In this section, each of the binders is paired with its reported cAMP release, % activity with respect to control, at 1 µM.
quantity: cAMP release, % activity with respect to control, at 1 µM

binder: VHSQGT[αMePhe(2-F)]TSD[Bip(2'-Et-4'-OMe)][αMeAPPA] (not fully specified (C-terminus); printed as VHSQGT-(αMe-2FPhe)-TSD-Bip(OMe)-(αMe-APPA); reading uncertain) [Seq. ID. No. 91]
value observed: 99 % of control
//
binder: VVH[αMeP]EGT[αMePhe(2,6-F2)]TSD[αMeBip(OMe)][hhPhe]-NH2 [Seq. ID. No. 228]
value observed: 96 % of control
//
binder: VH[αMeP]EGTFT[αMeS]D[αMeBip(OMe)][αMeAPPA] (not fully specified (C-terminus); printed as VH-(αMe-Pro)-EGTFT-(αMe-Ser)-D-(αMe-Bip(OMe))-(αMe-APPA); reading uncertain) [Seq. ID. No. 164]
value observed: 94 % of control
//
binder: VHSEGT[αMePhe(2-F)]TSD[αMeBip(OMe)][αMeAPPA] (not fully specified (C-terminus); printed as VHSEGT-(αMe-2FPhe)-TSD-(αMe-Bip(OMe))-(αMe-APPA); reading uncertain) [Seq. ID. No. 145]
value observed: 99 % of control
